System under test: Ubiquitin carboxyl-terminal hydrolase 2 (Homo sapiens) (UniProt O75604)
Sequence (O75604 whole entry, looked up): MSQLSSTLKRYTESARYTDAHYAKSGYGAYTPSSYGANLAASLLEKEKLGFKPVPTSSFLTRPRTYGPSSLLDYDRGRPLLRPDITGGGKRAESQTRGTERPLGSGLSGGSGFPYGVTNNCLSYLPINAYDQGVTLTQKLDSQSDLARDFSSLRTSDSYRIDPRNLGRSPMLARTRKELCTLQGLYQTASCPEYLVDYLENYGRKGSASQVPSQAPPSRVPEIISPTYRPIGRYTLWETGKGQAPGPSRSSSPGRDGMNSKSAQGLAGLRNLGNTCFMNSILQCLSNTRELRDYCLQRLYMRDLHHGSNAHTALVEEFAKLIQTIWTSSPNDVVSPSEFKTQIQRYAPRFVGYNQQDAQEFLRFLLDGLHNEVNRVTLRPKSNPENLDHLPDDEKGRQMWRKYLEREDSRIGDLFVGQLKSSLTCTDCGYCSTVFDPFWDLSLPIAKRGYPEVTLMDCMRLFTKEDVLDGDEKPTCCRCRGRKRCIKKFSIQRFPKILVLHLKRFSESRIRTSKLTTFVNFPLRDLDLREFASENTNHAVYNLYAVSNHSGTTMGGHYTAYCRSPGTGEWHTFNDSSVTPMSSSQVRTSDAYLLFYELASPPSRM
Test description: Confirmation Assay for Inhibitors of Ubiquitin-specific Protease USP2a Using CHOP2 as the Reporter; also: nearly all actives have a fitted effect of over 55% in size
Measurement setup: USP2 core, Ub-CHOP2 coupled reporter fluorescence; series mostly up to 38.3 µM
Procedure: NIH Molecular Libraries Probe Centers Network [MLPCN] NIH Chemical Genomics Center [NCGC] MLSCN Grant: XO1-MH079852-01 PI Name: Nicholson, Ben. […] Thus, this coupled assay gives a fluorescent read-out at excitation/emission wavelengths of 485/531. […] NCGC Assay Protocol Summary: The assay buffer, prepared fresh at the day of the assay, contains 20mM Tris-HCl pH 8.0, 2mM CaCl2, 2mM beta-Mercaptoethanol, 0.05% CHAPS. […] The time zero reading was used to flag fluorescence artifacts. […]
Records with an inconclusive call do not appear. Active and inactive are the calls of the source. Calls follow the shape of the dose curve; as a rule, active = well fitted inhibition curve with a large enough effect; inconclusive = small, poorly fitted or top-dose-only effect, or effect the other way; inactive = flat fitted curve, though single readings scatter.
Outcome codes: t = active, f = inactive

• Cc1ccc(S(=O)(=O)Nc2ccc(N3CCOCC3)cc2)cc1 = f
• COCCN1Cc2cccc(C(=O)N3CCN(c4cc(C)ccc4C)CC3)c2C1=O = f
• Cc1ccc(C(=O)C(=S)N2CCOCC2)cc1 = f
• C#CCOCCOCCOCCNc1nc(N2CCN(C(=O)CCCCCCCCCCNC(=O)[C@H]([C@@H](C)CC)n3cc(CCCCCN)nn3)CC2)nc(N2CCN(C(=O)CCCCCCCCCCNC(=O)[C@H](CCCCN)n3cc(CCCC(=O)O)nn3)CC2)n1 = t
• O=C1CCCc2nc(N3CCN(c4ccccc4)CC3)ncc21 = f
• CC1CCN(c2ccc3c(c2)S(=O)(=O)c2cccc(C(=O)NC4CC4)c2C3=O)CC1 = f
• Cc1ccc(C(=O)N/C(=C/c2cccs2)C(=O)NCc2ccco2)cc1 = f
• CCSc1nc(N2CCCCC2)c2c(c1C#N)CCCC2 = f
• CCC(=O)c1ccc(OCC(=O)NC2CCN(Cc3ccccc3)CC2)cc1 = f
• O=C(c1cccc(F)c1)N1CCN(S(=O)(=O)c2ccccc2)CC1 = f
• Nn1c(Nc2ccccc2)nc2ccccc2c1=O = f
• COc1ccc(S(=O)(=O)N2CCCCC2)cc1NC(=O)Cc1c[nH]c2ccccc12 = f
• O=C(NC1CCCCC1)C(c1ccco1)N(C(=O)c1csnn1)c1cccc(F)c1 (stereo not drawn) = f

----------
System under test: Ubiquitin carboxyl-terminal hydrolase 2 (Homo sapiens)
Test description: Confirmation Assay for Inhibitors of Ubiquitin-specific Protease USP2a Using CHOP2 as the Reporter; also: nearly all actives have a fitted effect of over 55% in size
Measurement setup: USP2 core, Ub-CHOP2 coupled reporter fluorescence; series mostly up to 38.3 µM
Inconclusive results are not listed. Activity calls are given as the source filed them. Calls come from the whole dose curve; as a rule, active = well fitted inhibition curve with a large enough effect; inconclusive = small, poorly fitted or top-dose-only effect, or effect the other way; inactive = flat fitted curve, though single readings scatter.
Outcomes: 1 (yes) = active, 0 (no) = inactive

- Cn1c(SCc2nc3ccccc3s2)nnc1-c1cccs1: 0 (no)
- CC(=O)O[C@H]1[C@H](O)[C@H](Oc2c(O)c(C)c3c4c2[C@@H](C)CC[C@@H]4[C@@H](C)C[C@H]3C=C(C)C)O[C@@H](C)[C@H]1O: 0 (no)
- Cc1ccc(C(=O)COC(=O)CNC(=O)CN2C(=O)c3ccccc3C2=O)cc1: 0 (no)
- CN(C)c1ccc(NC(=O)CSCc2nc3c(nnn3Cc3ccc(F)cc3)c(=O)[nH]2)cc1: 0 (no)
- CCOc1ccccc1C(=O)N[C@H](C(=O)Nc1ccc(OC)c(S(=O)(=O)N2CCOCC2)c1)C(C)C: 0 (no)
- CC(NC(=O)COc1ccccc1-c1ccccc1)c1ccccc1 (centres undefined): 0 (no)
- CC1(C(=O)O)Sc2[nH]c(=O)sc2C2c3ccccc3OC(=O)C21 (centres undefined): 0 (no)
- Cc1cc(=O)oc(C)c1C(=O)NCCc1ccccc1: 0 (no)
- CCC(C)(C)n1nnnc1C(c1ccc(C)cc1)N1CCCC1 (centres undefined): 0 (no)
- O=c1/c(=C/c2ccco2)sc2n1CN(c1cccc(Br)c1)CN=2: 0 (no)
- O=C(CSCc1cnn(-c2ccccc2)c1-n1cccc1)NCC1CCCO1 (centres undefined): 0 (no)
- O=C(CN1C(=O)/C(=C2\SC(=S)N(CCS(=O)(=O)O)C2=O)c2ccccc21)Nc1cccc(Br)c1: 1 (yes)
- O=S(=O)(NC1CCSc2ccccc21)c1ccccc1 (centres undefined): 0 (no)
- Cc1c(O)c(CN2CCCC2)cc2c3c(c(=O)oc12)CCC3: 0 (no)
- CCC1SC2=NC(C)=C(C(=O)OCCOC)C(c3ccc(C(=O)OC)cc3)N2C1=O (centres undefined): 0 (no)
- CCCn1c(C)cc(C)c(C#N)c1=O: 0 (no)
- CCCCOC1(c2ccccc2)NC(=S)NN=C1c1ccccc1 (centres undefined): 0 (no)
- Cc1cnc(N)c2c(=O)oc3ccccc3c12: 0 (no)
- CN1CCN(CCC(=O)N/N=C/c2cc([N+](=O)[O-])ccc2O)CC1: 0 (no)
- Nc1c(C(=O)NC2CC2)sc2nc3c(c(-c4ccco4)c12)CC/C3=C/c1ccco1: 1 (yes)
- O=S(=O)(c1cc(Cl)ccc1Cl)N1CCNCC1: 0 (no)
- O=C(c1ccco1)N1CCN(C(c2cccs2)c2sc3ncnn3c2O)CC1 (centres undefined): 0 (no)
- FC(F)(F)c1cnc2c(c1)Nc1ccccc1S2: 0 (no)
- O=S(=O)(c1ccccc1)N(CC1CO1)c1cc(Cl)ccc1Cl (centres undefined): 0 (no)
- CCOc1ccc(NC(=O)N(CCCN2CCOCC2)Cc2cccnc2)cc1: 0 (no)
- CN(c1cccc(NC(=O)Nc2cccc(Cl)c2)c1)S(C)(=O)=O: 0 (no)
- NS(=O)(=O)c1ccc(N=Nc2c(O)c(C(=O)O)cc3ccccc23)cc1: 1 (yes)
- O=C(CSCCO)Nc1cccc2ccccc12: 0 (no)
- O=C(c1ccccc1)c1ccc2nc(-c3ccco3)c(-c3ccco3)nc2c1: 0 (no)
- Cc1ccccc1OCCn1nc(C(=O)O)c2ccccc2c1=O: 0 (no)
- CC1CCc2c(sc3nc(CN4CCOCC4)nc(NS(=O)(=O)c4cccc([N+](=O)[O-])c4)c23)C1 (centres undefined): 0 (no)
- CCCCCCCCCC[N+](C)(C)CC/C=C1/c2ccccc2Sc2ccc(Cl)cc21: 1 (yes)
- Cc1ccc(-c2c(C)n([O-])c3c([n+]2=O)CCC3)o1: 0 (no)
- CN(c1ccccc1)S(=O)(=O)c1ccc(Cl)c(C(=O)NCCc2c[nH]c3ccccc23)c1: 0 (no)

Values from PubChem BioAssay AID493168
